Assayed target: human albumin (human, UniProt P02768 25-609)
Protocol description: phage ELISA
Where no end group is shown, it is not given here.
Readout type: binding result

Consider the reported binding result for these binders:
{"columns": ["Binder", "binding result"],
 "data": [
  ["DLCLRDWGCLW (phage clone selected on rat SA) [RC]", "no binding"],
  ["KSCSELHWLLVEECLF (phage clone selected on rabbit SA) [BD]", "no binding"],
  ["CGCVDVSDWDCWSECLWSHGA (phage clone selected on rat SA) [RE]", "no binding"],
  ["MDELAFYCGIWECLMHQEQK (phage clone selected on rabbit SA) [BB]", "no binding"],
  ["RAPESFVCYWETICFERSEQ (not fully specified (bridges); printed as Arg-Ala-Pro-Glu-Ser-Phe-Val-Cys-Tyr-Trp-Glu-Thr-Ile-Cys-Phe-Glu-Arg-Ser-Glu-Gln; cysteine pairing not given here, phage clone selected on human SA) [HB]", "binds"]
]}

Need binding result of EMCYFPGICWM (not fully specified (bridges); printed as Glu-Met-Cys-Tyr-Phe-Pro-Gly-Ile-Cys-Trp-Met; cysteine pairing not given here, phage clone selected on human SA) [HC] , thanks.
binds

And for DTCVDLVRLGLECWG (phage clone selected on rat SA) [RD] ?
no binding

Same read-out for GENWCDSTLMAYDLCGQVNM (phage clone selected on rabbit SA) [BA] ?
no binding

One more binder: EVRSFCTDWPAEKSCKPLRG (not fully specified (bridges); printed as Glu-Val-Arg-Ser-Phe-Cys-Thr-Asp-Trp-Pro-Ala-Glu-Lys-Ser-Cys-Lys-Pro-Leu-Arg-Gly; cysteine pairing not given here, phage clone selected on human SA) [HA]
binds

Next record, please: RNEDPCVVLLEMGLECWEGV (phage clone selected on rat SA) [RA]
no binding

Do the same for DLCDVDFCWF (phage clone selected on rabbit SA) [BC] please
no binding
